These measurements were taken from patent US20170121295A1.

- Measurement protocol: Pharmacokinetics in Male Beagle Dogs
- Assay type: in vivo
- Measurement conditions: male, Beagle, dog, plasma, po, 5 mg/kg, dosed as a capsule form, fasted; read-out: apparent oral bioavailability
Property label: bioavailability (%)
Numbers only, in %.

## Task Quick one: bioavailability for Cc1noc(-c2ccc(-c3ccc(C4(C(=O)[O-])CC4)cc3)cc2)c1NC(=O)O[C@H](C)c1ccccc1.[Na+] ?
## Result 24

* * *

- Measurement protocol: Pharmacokinetics in Sprague-Dawley Rats
- Format: in vivo
- Measurement conditions: Sprague-Dawley, rat, plasma; PO 1 mg/kg, fasted, male rats; read-out: maximal plasma concentration (Cmax)
Property label: Cmax

## Task Quick one: Cmax for Cc1noc(-c2ccc(-c3ccc(C4(C(=O)O)CC4)cc3)cc2)c1NC(=O)O[C@H](C)c1ccccc1 [Compound 1] ?
## Result 400 ng/mL

* * *

- Measurement protocol: Pharmacokinetics in Sprague-Dawley Rats
- Type: in vivo
- Measurement conditions: male, Sprague-Dawley, rat, plasma; IV 1 mg/kg, males
Property label: half-life
Hey, just the number and the unit after it is fine.

## Task Quick one: half-life for Cc1noc(-c2ccc(-c3ccc(C4(C(=O)[O-])CC4)cc3)cc2)c1NC(=O)O[C@H](C)c1ccccc1.[Na+] ?
## Result 228 min

* * *

- Measurement protocol: Solubility assessment at various pH levels (solubility profile)
- Assay type: physicochemical
- Measurement conditions: 0.15M NaCl solution, saline or isotonic, thermodynamic from solid, Target pH 11, pH adjusted with HCl or NaOH
Kindly state solubility at 2 h for each of the entries shown.
One number for each entry, in mg/mL.

Would you mind listing solubility at 2 h for each of the following compounds?
1. Cc1noc(-c2ccc(-c3ccc(C4(C(=O)[O-])CC4)cc3)cc2)c1NC(=O)O[C@H](C)c1ccccc1.[Na+]
2. Cc1noc(-c2ccc(-c3ccc(C4(C(=O)O)CC4)cc3)cc2)c1NC(=O)O[C@H](C)c1ccccc1

## Result
16
13

* * *

- Measurement protocol: Solubility assessment at various pH levels (solubility profile)
- Type: physicochemical
- Measurement conditions: 0.15M NaCl solution, saline or isotonic, thermodynamic from solid, Target pH 9, pH adjusted with HCl or NaOH
Property label: solubility at 2 h

## Task Quick one: solubility at 2 h for Cc1noc(-c2ccc(-c3ccc(C4(C(=O)O)CC4)cc3)cc2)c1NC(=O)O[C@H](C)c1ccccc1 ?
## Result 930 µg/mL

Please find the next molecule below.
## Task Quick one: solubility at 2 h for Cc1noc(-c2ccc(-c3ccc(C4(C(=O)[O-])CC4)cc3)cc2)c1NC(=O)O[C@H](C)c1ccccc1.[Na+] ?
## Result 17000 µg/mL

* * *

- Measurement protocol: Pharmacokinetics in Male Beagle Dogs
- Type: in vivo
- Measurement conditions: male, Beagle, dog, plasma; IV 2 mg/kg; read-out: systemic clearance
Property label: clearance (L/h/kg)
Numbers only, in L/h/kg.

## Task Quick one: clearance for Cc1noc(-c2ccc(-c3ccc(C4(C(=O)[O-])CC4)cc3)cc2)c1NC(=O)O[C@H](C)c1ccccc1.[Na+] ?
## Result 0.63

* * *

- Measurement protocol: Pharmacokinetics in Sprague-Dawley Rats
- Type: in vivo
- Measurement conditions: Sprague-Dawley, rat, plasma; PO 1 mg/kg, fasted, male; read-out: apparent bioavailability
Property label: bioavailability (%)
Numbers only, in %.

## Task Quick one: bioavailability for Cc1noc(-c2ccc(-c3ccc(C4(C(=O)O)CC4)cc3)cc2)c1NC(=O)O[C@H](C)c1ccccc1 [Compound 1] ?
## Result 63
